Listed here are compounds together with their documented IC50.
# Target or test system: Human PD-L1/PD-1 (Homo sapiens, UniProt Q9NZQ7)
# Construct: made in house; host or cells: HEK293T
# Sequence (Q9NZQ7 with tags, fused parts or gaps): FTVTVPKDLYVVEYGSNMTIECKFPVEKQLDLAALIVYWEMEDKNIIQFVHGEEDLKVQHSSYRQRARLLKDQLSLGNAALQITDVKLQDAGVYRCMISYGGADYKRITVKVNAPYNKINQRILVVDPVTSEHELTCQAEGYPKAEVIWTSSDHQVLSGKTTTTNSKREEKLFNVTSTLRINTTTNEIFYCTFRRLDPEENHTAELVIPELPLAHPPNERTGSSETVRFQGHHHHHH
# Assay comment: HTRF PD-1-Ig/PD-L1-His binding assay (human PD-L1)
# Protocol conditions: cluster symbol; read-out: HTRF IC50 cluster
Positions of bridges follow the written chain, without caps; N, C: chain ends. Non-standard residues stand in square brackets, D forms with d. Residues, ends and D or L forms follow the SMILES beside them. Phe(4-Cl) = N[C@@H](Cc1ccc(Cl)cc1)C(=O)O; cisHyp = O=C(O)[C@@H]1C[C@H](O)CN1; NMeF = CN[C@@H](Cc1ccccc1)C(=O)O; NMeNle = CCCC[C@H](NC)C(=O)O; NMeA = CN[C@@H](C)C(=O)O; Orn = NCCC[C@H](N)C(=O)O; Dap = NC[C@H](N)C(=O)O; Sar = CNCC(=O)O

Compound	Target or test system	IC50
CCCC[C@H]1C(=O)N(C)CC(=O)N[C@@H](CC(=O)O)C(=O)N[C@@H](C(C)C)C(=O)N(C)[C@@H](Cc2ccccc2)C(=O)N[C@@H](Cc2ccc(O)cc2)C(=O)N(C)CC(=O)N[C@@H](Cc2c[nH]c3ccccc23)C(=O)N[C@@H](Cc2ccc(Cl)cc2)C(=O)N[C@@H](CC(C)C)C(=O)N[C@H](C(=O)NCC(N)=O)CSCC(=O)N[C@@H](Cc2ccccc2)C(=O)N(C)[C@@H](Cc2ccccc2)C(=O)N1C [Example 3099] ({CH2CO}-F[NMeF][NMeNle][Sar]DV[NMeF]Y[Sar]W[Phe(4-Cl)]LCG-NH2; thioether N-13)	Human PD-L1/PD-1 (Homo sapiens, UniProt Q9NZQ7)	> 30.5 nM
CCCC[C@H]1C(=O)N(C)CC(=O)N[C@@H](CC(=O)O)C(=O)N[C@@H](C(C)C)C(=O)N(C)[C@@H](Cc2ccccc2)C(=O)N[C@@H](Cc2ccc(O)cc2)C(=O)N(C)CC(=O)N[C@@H](Cc2c[nH]c3ccccc23)C(=O)N[C@@H](Cc2ccc(O)cc2)C(=O)N[C@@H](CC(C)C)C(=O)N[C@H](C(=O)NCC(N)=O)CSCC(=O)N[C@@H](Cc2ccccc2)C(=O)N(C)[C@@H](Cc2cccc3ccccc23)C(=O)N1C (single isomer, unassigned) [Example 3585-B]	Human PD-L1/PD-1 (Homo sapiens, UniProt Q9NZQ7)	6.76 to 30.3 nM
CCCC[C@H]1C(=O)N(C)[C@@H](CCCC)C(=O)N[C@@H](CCCN)C(=O)N[C@H](C(=O)NCC(N)=O)CSCC(=O)N[C@@H](Cc2ccc(O)cc2)C(=O)N(C)[C@@H](C)C(=O)N[C@@H](CC(N)=O)C(=O)N2CCC[C@H]2C(=O)N[C@@H](CN)C(=O)N[C@@H](CC(C)C)C(=O)N2C[C@@H](O)C[C@H]2C(=O)N[C@@H](Cc2c[nH]c3ccccc23)C(=O)N[C@@H](CO)C(=O)N[C@@H](Cc2c[nH]c3ccccc23)C(=O)N1C [Example 1145] ({CH2CO}-Y[NMeA]NP[Dap]L[cisHyp]WSW[NMeNle][NMeNle][Orn]CG-NH2; thioether N-14)	Human PD-L1/PD-1 (Homo sapiens, UniProt Q9NZQ7)	6.76 to 30.3 nM
CCCC[C@H]1C(=O)N(C)[C@@H](CCCC)C(=O)N[C@@H](CC(C)C)C(=O)N[C@H](C(=O)NCC(N)=O)CSCC(=O)N[C@@H](Cc2ccc(O)cc2)C(=O)N(C)[C@@H](C)C(=O)N[C@@H](CC(N)=O)C(=O)N2CCC[C@H]2C(=O)N[C@@H](Cc2c[nH]cn2)C(=O)N[C@@H](CCC(N)=O)C(=O)N2CCC[C@H]2C(=O)N[C@@H](Cc2c[nH]c3ccccc23)C(=O)N[C@@H](CO)C(=O)N[C@@H](Cc2c[nH]c3ccccc23)C(=O)N1C [Example 5079] ({CH2CO}-Y[NMeA]NPHQPWSW[NMeNle][NMeNle]LCG-NH2; thioether N-14)	Human PD-L1/PD-1 (Homo sapiens, UniProt Q9NZQ7)	0.385 to 6.74 nM
